- test-name: Oral bioavailability in Sprague-Dawley rat at 5 mg/kg
- Assay type: ADME, organism-based
- protocol-conditions: in vivo
measured-metric: bioavailability
In your response, put the unit directly after the numeric value.

Query :: Assign bioavailability to the following record: NC(=O)c1c(N)ncnc1N1CCC(c2nc(-c3ccc(F)c(C(F)(F)F)c3)cn2CCN2CCC2)CC1
Result :: 17%

---

- assay-system: Cytochrome P450 3A4 (Homo sapiens, UniProt P08684)
- Sequence (P08684 whole entry): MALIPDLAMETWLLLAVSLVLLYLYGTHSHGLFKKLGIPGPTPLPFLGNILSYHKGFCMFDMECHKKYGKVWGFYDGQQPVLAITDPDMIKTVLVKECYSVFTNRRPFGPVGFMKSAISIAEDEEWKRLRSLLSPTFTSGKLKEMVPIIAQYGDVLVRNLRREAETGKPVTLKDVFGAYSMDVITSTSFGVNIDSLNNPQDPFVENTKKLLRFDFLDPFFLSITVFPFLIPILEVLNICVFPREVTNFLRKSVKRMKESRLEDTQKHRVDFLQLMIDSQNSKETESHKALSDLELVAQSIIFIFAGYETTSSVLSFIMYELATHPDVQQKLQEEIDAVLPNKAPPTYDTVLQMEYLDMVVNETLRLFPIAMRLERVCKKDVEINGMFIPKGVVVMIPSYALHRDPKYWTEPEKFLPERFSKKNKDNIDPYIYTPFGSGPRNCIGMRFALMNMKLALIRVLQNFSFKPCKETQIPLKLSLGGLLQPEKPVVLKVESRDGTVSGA
- test-name: Inhibition of CYP3A4 (unknown origin)
- Assay type: ADME
pIC50: −log10 of the molar value.
Here the recorded pIC50 is given for each entry.

sample-smiles	pIC50
NC(=O)c1c(N)ncnc1N1CCC(c2nc(-c3ccc(F)c(C(F)(F)F)c3)cn2CCN2CCC2)CC1	< 4.70

Now for a further molecule.
Query :: Assign pIC50 to the following record: Cn1cc(-c2ccc(F)c(C(F)(F)F)c2)nc1C1CCN(c2ncnc(N)c2-c2ccc(F)cc2)CC1
Result :: < 4.70

FYI, the data here is from ChEMBL document CHEMBL4823315.
